All values here come from patent US8883785B2.

Target: KMO mouse enzyme (Mus musculus, UniProt Q91WN4)
Construct: KMO enzyme prepared at Evotec from mouse liver (4-6 weeks old) via mitochondria isolation; from tissue; host or cells: mouse liver (4-6 weeks old), mitochondria isolation
Sequence (Q91WN4 whole entry): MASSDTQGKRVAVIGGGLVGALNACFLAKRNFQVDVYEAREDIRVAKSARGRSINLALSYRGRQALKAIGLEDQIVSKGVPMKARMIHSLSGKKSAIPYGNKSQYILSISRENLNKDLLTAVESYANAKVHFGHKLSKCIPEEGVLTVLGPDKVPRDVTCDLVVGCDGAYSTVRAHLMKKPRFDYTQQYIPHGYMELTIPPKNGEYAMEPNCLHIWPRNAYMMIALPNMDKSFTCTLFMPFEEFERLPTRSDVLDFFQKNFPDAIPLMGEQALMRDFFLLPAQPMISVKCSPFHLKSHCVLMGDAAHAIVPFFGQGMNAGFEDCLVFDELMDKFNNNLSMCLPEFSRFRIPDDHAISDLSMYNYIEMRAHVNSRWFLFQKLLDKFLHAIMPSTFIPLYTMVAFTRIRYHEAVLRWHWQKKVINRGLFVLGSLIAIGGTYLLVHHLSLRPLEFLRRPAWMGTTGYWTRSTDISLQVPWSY
Assay: Mouse KMO enzyme assay: L-kynurenine hydroxylation to 3OH-KYN by LC/MS
Assay type: biochemical
Conditions: compound at 10 μM; KMO from mouse liver mitochondria; read-out: INH.Mouse @ 10 μM

{"Smiles input": "Cc1ccc(-c2cc(-c3noc(=O)[nH]3)ncn2)cc1F", "Tgt": "KMO mouse enzyme (Mus musculus, UniProt Q91WN4)", "Unit label": "%", "inhibition at 10 µM": 100}
{"Smiles input": "Clc1ccc(-c2cc(-c3nnc[nH]3)ncn2)cc1Cl", "Tgt": "KMO mouse enzyme (Mus musculus, UniProt Q91WN4)", "Unit label": "%", "inhibition at 10 µM": 100}
{"Smiles input": "Cc1nc(-c2cc(-c3ccc(Cl)c(Cl)c3)ncn2)no1", "Tgt": "KMO mouse enzyme (Mus musculus, UniProt Q91WN4)", "Unit label": "%", "inhibition at 10 µM": 51}
{"Smiles input": "FC(F)(F)c1nc(-c2cc(-c3ccc(Cl)c(Cl)c3)ncn2)no1", "Tgt": "KMO mouse enzyme (Mus musculus, UniProt Q91WN4)", "Unit label": "%", "inhibition at 10 µM": 87}
{"Smiles input": "O=c1[nH]nc(-c2cc(-c3ccc(Cl)c(Cl)c3)ncn2)[nH]1", "Tgt": "KMO mouse enzyme (Mus musculus, UniProt Q91WN4)", "Unit label": "%", "inhibition at 10 µM": 58.1}
{"Smiles input": "Clc1ccc(-c2cc(-c3nccs3)ncn2)cc1Cl", "Tgt": "KMO mouse enzyme (Mus musculus, UniProt Q91WN4)", "Unit label": "%", "inhibition at 10 µM": 48}
{"Smiles input": "Fc1ccc(-c2cc(-c3nnn[nH]3)ncn2)cc1Cl", "Tgt": "KMO mouse enzyme (Mus musculus, UniProt Q91WN4)", "Unit label": "%", "inhibition at 10 µM": 103}
{"Smiles input": "Cc1ccc(-c2cc(-c3nnn[nH]3)ncn2)cc1F", "Tgt": "KMO mouse enzyme (Mus musculus, UniProt Q91WN4)", "Unit label": "%", "inhibition at 10 µM": 100}
{"Smiles input": "Fc1ccc(-c2cc(-c3nnn[nH]3)ncn2)cc1F", "Tgt": "KMO mouse enzyme (Mus musculus, UniProt Q91WN4)", "Unit label": "%", "inhibition at 10 µM": 101}
{"Smiles input": "O=c1[nH]c(-c2cc(-c3ccc(OC(F)(F)F)c(Cl)c3)ncn2)no1", "Tgt": "KMO mouse enzyme (Mus musculus, UniProt Q91WN4)", "Unit label": "%", "inhibition at 10 µM": 99}
{"Smiles input": "FC(F)(F)c1cn(-c2cc(-c3ccc(Cl)c(Cl)c3)ncn2)cn1", "Tgt": "KMO mouse enzyme (Mus musculus, UniProt Q91WN4)", "Unit label": "%", "inhibition at 10 µM": 64.4}

---

Biological target: KMO mouse enzyme (Mus musculus, UniProt Q91WN4)
Construct: KMO enzyme prepared at Evotec from mouse liver (4-6 weeks old) via mitochondria isolation; from tissue; host or cells: mouse liver (4-6 weeks old), mitochondria isolation
Assay: Mouse KMO enzyme assay: L-kynurenine hydroxylation to 3OH-KYN by LC/MS
Assay type: biochemical
Details: compound at 10 μM; KMO from mouse liver mitochondria; read-out: INH.Mouse @ 10 μM
Assay readout: inhibition at 10 µM

{"Smiles input": "Clc1cccc(-c2cc(-c3nc4ccccc4[nH]3)ncn2)c1", "Value measured": "102%"}
{"Smiles input": "Cc1coc(-c2cc(-c3ccc(Cl)c(Cl)c3)nc(C)n2)n1", "Value measured": "46.8%"}
{"Smiles input": "Clc1cccc(-c2cc(-c3nnn[nH]3)ncn2)c1", "Value measured": "103%"}
{"Smiles input": "O=c1[nH]c(-c2cc(-c3ccc(F)c(Cl)c3)ncn2)no1", "Value measured": "100%"}
{"Smiles input": "Clc1ccc(-c2cc(C3=NCCN3)ncn2)cc1Cl", "Value measured": "95.5%"}
{"Smiles input": "Cn1nnc(-c2cc(-c3cccc(Cl)c3)ncn2)n1", "Value measured": "91.2%"}
{"Smiles input": "Cn1[nH]cc(-c2cc(-c3ccc(Cl)c(Cl)c3)ncn2)c1=O", "Value measured": "73.6%"}
{"Smiles input": "FC(F)(F)Oc1ccc(-c2cc(-c3nnn[nH]3)ncn2)cc1Cl", "Value measured": "100%"}
{"Smiles input": "O=c1[nH]c(-c2cc(-c3cccc(Cl)c3)ncn2)no1", "Value measured": "96.3%"}
{"Smiles input": "S=c1[nH]c(-c2cc(-c3ccc(Cl)c(Cl)c3)ncn2)no1", "Value measured": "102%"}
{"Smiles input": "Clc1ccc(-c2cc(-c3ncco3)ncn2)cc1Cl", "Value measured": "93%"}
{"Smiles input": "Cc1coc(-c2cc(-c3ccc(Cl)c(Cl)c3)ncn2)n1", "Value measured": "101%"}
{"Smiles input": "Cc1c[nH]c(-c2cc(-c3ccc(Cl)c(Cl)c3)ncn2)n1", "Value measured": "92.3%"}
{"Smiles input": "Clc1cccc(-c2cc(-c3nc4ccccc4o3)ncn2)c1", "Value measured": "54.4%"}
{"Smiles input": "Cc1ccc(-c2cc(-c3noc(=O)[nH]3)ncn2)cc1Cl", "Value measured": "98%"}
{"Smiles input": "Clc1ccc(-c2cc(-c3nc4ccccc4[nH]3)ncn2)cc1Cl", "Value measured": "49.7%"}
{"Smiles input": "Clc1ccc(-c2cc(-c3cc[nH]n3)ncn2)cc1Cl", "Value measured": "19%"}
{"Smiles input": "FC(F)(F)c1ccn(-c2cc(-c3ccc(Cl)c(Cl)c3)ncn2)n1", "Value measured": "56.7%"}
{"Smiles input": "Cc1nnc(-c2cc(-c3ccc(Cl)c(Cl)c3)ncn2)[nH]1", "Value measured": "80%"}
{"Smiles input": "O=c1[nH]cc(-c2cc(-c3ccc(Cl)c(Cl)c3)ncn2)[nH]1", "Value measured": "105%"}
{"Smiles input": "O=c1[nH]c(-c2cc(-c3cncc(Cl)c3)ncn2)no1", "Value measured": "65.2%"}
{"Smiles input": "CC(C)Oc1ccc(-c2cc(-c3noc(=O)[nH]3)ncn2)cc1Cl", "Value measured": "96%"}
{"Smiles input": "Cn1nnnc1-c1cc(-c2cccc(Cl)c2)ncn1", "Value measured": "65.6%"}
{"Smiles input": "Clc1cccc(-c2cc(-c3nc4ccc(Cl)cc4[nH]3)ncn2)c1", "Value measured": "39.1%"}
{"Smiles input": "Cc1coc(-c2cc(-c3cccc(Cl)c3)ncn2)n1", "Value measured": "101%"}
{"Smiles input": "Cc1noc(-c2cc(-c3cccc(Cl)c3)ncn2)n1", "Value measured": "91%"}
{"Smiles input": "Clc1ccc(-c2cc(-c3ncc[nH]3)ncn2)cc1Cl", "Value measured": "99%"}
{"Smiles input": "O=c1[nH]c(-c2cc(-c3ccc(F)c(F)c3)ncn2)no1", "Value measured": "100%"}
{"Smiles input": "Clc1cccc(-c2cc(-c3nnc[nH]3)ncn2)c1", "Value measured": "102%"}
{"Smiles input": "CNC(=O)c1ccc(-c2cc(-c3ccc(Cl)c(Cl)c3)ncn2)nc1", "Value measured": "39.1%"}
{"Smiles input": "CC(C)Oc1ccc(-c2cc(-c3nnn[nH]3)ncn2)cc1Cl", "Value measured": "100%"}
